The entries below come with measured Kb values attached.
- target desc: UniProt Q9JI35
- assay: Antagonist activity at histamine H3 receptor in guinea pig jejunum assessed as electrically evoked contractions
- Assay type: functional, tissue-based
- protocol conditions: read-out: pA2 (converted)

CCCN1CCN(c2ncc(CCN(C)C(=O)CC)s2)CC1: 43.7 nM
CCCN1CCN(c2ncc(CCN)s2)CC1: 64.6 nM
CCCCCN(C)CCc1cnc(N2CCN(CCC)CC2)s1: 89.1 nM
CCCN1CCN(c2ncc(CCN(C)CCCc3ccccc3)s2)CC1: 5.37 nM
CCCN1CCN(c2nc3cnccc3[nH]2)CC1: 56.2 nM
CCCN1CCN(c2ncc(CCN(C)C)s2)CC1: 16.6 nM
CCCN(C)CCc1cnc(N2CCN(CCC)CC2)s1: 29.5 nM
C=CCN1CCN(c2nc3ccccc3s2)CC1: 79.4 nM

Tell us which Kb value is on record for S=C(NC1CCCCC1)N1CCC(c2cnc[nH]2)CC1 [THIOPERAMIDE] 0.871 nM

Tell us which Kb value is on record for CCCN1CCN(c2ncc(CCN(C)CCCCCc3ccccc3)s2)CC1 56.2 nM

====

- target desc: Histamine H3 receptor (Cavia porcellus, UniProt Q9JI35)
- Sequence (Q9JI35 whole entry): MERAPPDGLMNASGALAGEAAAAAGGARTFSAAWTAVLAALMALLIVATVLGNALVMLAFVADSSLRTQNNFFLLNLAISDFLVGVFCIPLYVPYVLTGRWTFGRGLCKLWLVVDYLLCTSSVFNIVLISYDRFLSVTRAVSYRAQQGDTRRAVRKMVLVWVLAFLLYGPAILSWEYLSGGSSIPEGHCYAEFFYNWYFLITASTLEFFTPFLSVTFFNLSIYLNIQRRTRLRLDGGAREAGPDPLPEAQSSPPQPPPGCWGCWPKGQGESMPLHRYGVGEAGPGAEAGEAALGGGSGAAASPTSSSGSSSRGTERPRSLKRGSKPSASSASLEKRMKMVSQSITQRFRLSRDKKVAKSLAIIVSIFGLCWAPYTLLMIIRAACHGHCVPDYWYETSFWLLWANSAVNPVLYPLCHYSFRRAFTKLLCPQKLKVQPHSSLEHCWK
- assay: Antagonist activity at histamine H3 receptor in guinea pig jejunum assessed as electrically evoked contractions
- Type: functional, tissue-based
- protocol conditions: read-out: pA2 (converted)
readout kind: Kb

CCCN1CCN(c2nc3ccccc3s2)CC1: 69.2 nM

Tell us which Kb value is on record for CCCN1CCN(c2nc3cnccc3o2)CC1 126 nM

Tell us which Kb value is on record for CCCN1CCN(c2ncc(CCN(C)C=O)s2)CC1 55 nM

Tell us which Kb value is on record for CCCCC(=O)N(C)CCc1cnc(N2CCN(CCC)CC2)s1 95.5 nM

Tell us which Kb value is on record for CCCN1CCN(c2ncc(CCN(C)Cc3ccccc3)s2)CC1 17.4 nM

Tell us which Kb value is on record for CCCN1CCN(c2ncc(CCNC)s2)CC1 63.1 nM

Tell us which Kb value is on record for CCCN1CCN(c2ncc(CCNC=O)s2)CC1 117 nM
